Each recorded value in this set is attributed to the RNAGym collection of RNA variant scans (doi:10.1126/science.aae0568).

B1: tRNA (parent)
chain: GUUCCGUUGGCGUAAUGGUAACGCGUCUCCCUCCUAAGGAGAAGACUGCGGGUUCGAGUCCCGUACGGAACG

variants of: B1; assay: yeast fitness relative to wild type (ratio to wild type); higher = fitter; tRNA-Arg(CCU), competitive growth, 37 C, YPD
This sample holds only a part of the variants without activity.
Kindly supply the reported yeast fitness values for the records listed here.
Returns: the value as a bare number; no unit string appended.

// recorded yeast fitness for C11U A15U C46U : 0.741

// recorded yeast fitness for G41C C46U : 1.03

// recorded yeast fitness for C24G A40G C66U : 0.515

// recorded yeast fitness for C4G U26A U32C : 0.565

// recorded yeast fitness for A20G C46U A70U : 0.878

// recorded yeast fitness for G17A G23A C66A : 0.776

// recorded yeast fitness for C31A A57U : 0.626

// recorded yeast fitness for U3C C30U : 0.879

// recorded yeast fitness for A36U C55U : 0.658

// recorded yeast fitness for C22A C61A : 0.611

// recorded yeast fitness for G58A G68C : 1.01

// recorded yeast fitness for C31G A37C G52C C61A C66U : 0.527

// recorded yeast fitness for U13A C22U : 0.859

// recorded yeast fitness for C11U A14G G23A : 0.504

// recorded yeast fitness for U19C G58C C61U C66U : 0.529

// recorded yeast fitness for C4G C49U U59C : 0.576

// recorded yeast fitness for G10A U19C G41C : 0.532

// recorded yeast fitness for G10C A43C C46G C55G A65U : 0.547

// recorded yeast fitness for U2C G58C : 1.05

// recorded yeast fitness for C24U A65C : 0.739

// recorded yeast fitness for G25A C34A A36C : 0.587

// recorded yeast fitness for C22G C31G G67A : 0.615
